Test system: OVCAR-5 ovarian
Experiment: NCI-60 one-dose screen, 48 h (100 = growth as untreated, 0 = no growth, -100 = all killed)
Settings: 10 µM unless noted
The panel holds about 83,000 compounds, 20% with a hit somewhere; the sample as a whole holds those more often. Calls of active or inactive are those of the source. The calls were made as follows: active = growth percent below 10; inactive = the rest.
Measured growth values are reported for all entries that follow.

O=C(N/N=C(\CS(=O)(=O)c1ccccc1)c1cc2cc(Br)ccc2oc1=O)c1ccccc1 :: 94.1% (inactive)

I am curious: what growth value has been reported for O=C1/C(=C/c2ccccc2F)CNC/C1=C\c1ccccc1F ?
-41.3% (active)

I am curious: what growth value has been reported for CC1=C(C/C=C(\C)CCC[C@H](C)CCC[C@H](C)CCCC(C)C)C(=O)c2ccccc2C1=O ?
105% (inactive)

I am curious: what growth value has been reported for COC(=O)c1c2c(c(C)[n+]([O-])c1C)C(=O)C=C(NCc1ccc(F)c(Cl)c1)C2=O ?
-91.8% (active)

I am curious: what growth value has been reported for O=C1c2cc(S(=O)(=O)O)ccc2C(=O)c2c1cccc2[N+](=O)[O-] ?
110% (inactive)

I am curious: what growth value has been reported for O=C1N/C(=C\c2ccccc2)c2ncccc21 ?
118% (inactive)

I am curious: what growth value has been reported for C[C@@H](Oc1cc(-c2cnn(C3CC4(CCCNC4)C3)c2)cnc1N)c1c(Cl)ccc(F)c1Cl (stereo not given in full) ?
34.3% (inactive)

I am curious: what growth value has been reported for FC(F)(F)c1cc(CNc2ncc(Br)c(Cl)n2)cc(C(F)(F)F)c1 ?
102% (inactive)

I am curious: what growth value has been reported for Cn1c2ccccc2c2nn(C(=O)c3ccccc3)c(=O)nc21 ?
101% (inactive)

I am curious: what growth value has been reported for CCCCc1ccc(C(O)(CCN2CC3CCC(CC3)C2)c2ccccc2)cc1 (stereo not given) ?
90.9% (inactive)

Value source: PubChem BioAssay (NCI)
